// values below are reported pEC50
system: UniProt:P41595
Sequence (P41595 whole entry): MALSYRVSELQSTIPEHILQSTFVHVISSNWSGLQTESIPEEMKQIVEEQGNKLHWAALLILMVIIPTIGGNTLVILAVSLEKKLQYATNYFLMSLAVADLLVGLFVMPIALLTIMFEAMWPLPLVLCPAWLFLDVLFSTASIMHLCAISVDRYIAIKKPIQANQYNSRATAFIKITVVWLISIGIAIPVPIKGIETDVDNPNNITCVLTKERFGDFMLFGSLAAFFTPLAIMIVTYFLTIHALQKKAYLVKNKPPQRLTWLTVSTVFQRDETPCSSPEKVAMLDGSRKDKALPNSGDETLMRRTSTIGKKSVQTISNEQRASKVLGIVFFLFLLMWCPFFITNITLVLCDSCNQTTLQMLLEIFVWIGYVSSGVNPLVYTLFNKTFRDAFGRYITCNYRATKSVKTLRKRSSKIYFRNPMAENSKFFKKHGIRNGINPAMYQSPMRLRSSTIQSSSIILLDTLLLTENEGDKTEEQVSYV
test-summary: Agonist activity at human 5HT2B receptor expressed in HEK293 cells assessed as calcium flux by FLIPR assay
Lab note — pEC50 values are minus log10 of concentrations in M.

NC[C@@H]1C[C@H]1c1ccccc1: 5.51

Now turn to the next compound.
Provide one value: measured pEC50 of `NC[C@H]1C[C@@H]1c1ccccc1`
7.43

* * *

system: Serotonin 2 receptors; 5-HT2a & 5-HT2c (Homo sapiens) (UniProt P28223+P28335)
Sequence (P28223 whole entry, looked up): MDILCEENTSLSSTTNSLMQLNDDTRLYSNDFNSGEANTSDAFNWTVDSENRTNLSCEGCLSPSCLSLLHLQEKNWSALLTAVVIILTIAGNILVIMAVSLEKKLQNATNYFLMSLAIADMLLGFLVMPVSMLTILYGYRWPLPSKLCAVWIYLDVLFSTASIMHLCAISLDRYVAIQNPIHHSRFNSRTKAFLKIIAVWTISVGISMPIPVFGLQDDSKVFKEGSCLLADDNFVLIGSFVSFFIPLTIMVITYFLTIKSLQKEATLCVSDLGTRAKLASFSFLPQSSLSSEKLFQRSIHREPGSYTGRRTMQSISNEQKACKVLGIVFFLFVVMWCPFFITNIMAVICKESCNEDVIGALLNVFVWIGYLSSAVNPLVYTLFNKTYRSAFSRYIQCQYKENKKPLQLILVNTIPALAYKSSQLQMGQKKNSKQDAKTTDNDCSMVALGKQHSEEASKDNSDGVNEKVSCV
Sequence (P28335 whole entry, looked up): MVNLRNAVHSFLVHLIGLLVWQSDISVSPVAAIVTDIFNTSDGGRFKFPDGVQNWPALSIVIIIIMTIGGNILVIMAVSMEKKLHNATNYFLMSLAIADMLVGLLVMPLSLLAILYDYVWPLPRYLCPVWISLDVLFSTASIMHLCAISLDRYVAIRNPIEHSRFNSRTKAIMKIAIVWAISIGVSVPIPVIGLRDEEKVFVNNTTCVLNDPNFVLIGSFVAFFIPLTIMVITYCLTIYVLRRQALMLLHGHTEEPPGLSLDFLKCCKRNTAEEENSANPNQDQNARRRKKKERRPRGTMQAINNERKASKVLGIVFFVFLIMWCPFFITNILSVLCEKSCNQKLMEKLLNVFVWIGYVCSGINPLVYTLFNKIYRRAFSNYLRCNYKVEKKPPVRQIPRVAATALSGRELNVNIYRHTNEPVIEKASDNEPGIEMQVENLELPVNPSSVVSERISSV
test-summary: Selectivity ratio of EC50 for human 5HT2A receptor to EC50 for human 5HT2C receptor
Short version: Ratio EC50 at least 50 is Yes, less is No.

Some entries whose results are on file:
NC[C@H]1C[C@@H]1c1ccc(Cl)cc1F (relative stereo): No
NC[C@H]1C[C@@H]1c1ccccc1O (relative stereo): No
Cc1cccc(Cl)c1[C@H]1C[C@@H]1CN (relative stereo): Yes
NC[C@H]1C[C@@H]1c1ccc(F)c(F)c1 (relative stereo): Yes

Decide: is the reported value of Ratio EC50 for Cc1ccc(Cl)c([C@H]2C[C@@H]2CN)c1F (relative stereo) equal to or greater than 50?
No

Evaluate Cc1ccc([C@H]2C[C@@H]2CN)c(Br)c1 (relative stereo) : Ratio EC50 at minimum 50?
No

Is reported Ratio EC50 greater than or equal to 50 here: NC[C@H]1C[C@@H]1c1cccc(F)c1F (relative stereo)
Yes

Check the entry COc1ccccc1[C@H]1C[C@@H]1CN (relative stereo) : does Ratio EC50 equal or exceed 50?
Yes

Hi, just wondering whether COc1cccc([C@H]2C[C@@H]2CN)c1 (relative stereo) shows Ratio EC50 of 50 or higher.
No

Reported Ratio EC50 at or above 50? Cc1cccc([C@H]2C[C@@H]2CN)c1.Cl (relative stereo)
Yes

* * *

Species on record: Homo sapiens
test-summary: Selectivity ratio of EC50 for human 5HT2B receptor to EC50 for human 5HT2C receptor
property: Ratio EC50
Field format: numeric only.

NC[C@H]1C[C@@H]1c1ccccc1Br: 17
NC[C@H]1C[C@@H]1c1cccc(C(F)(F)F)c1 (relative stereo): 2.6
Cc1ccccc1[C@H]1C[C@@H]1CN (relative stereo): 2.3
NC[C@H]1C[C@@H]1c1c(F)cccc1F (relative stereo): 39
Cc1cccc(Cl)c1[C@H]1C[C@@H]1CN (relative stereo): 2
NC[C@H]1C[C@@H]1c1cccc(Cl)c1 (relative stereo): 5.9
NC[C@H]1C[C@@H]1c1ccc(F)c(F)c1 (relative stereo): 3.2
Cc1ccc([C@H]2C[C@@H]2CN)cc1C (relative stereo): 0.33
NC[C@H]1C[C@@H]1c1ccc(Cl)cc1 (relative stereo): 5.3
NC[C@H]1C[C@@H]1c1cccc(F)c1 (relative stereo): 1.1

For the compound COc1cccc([C@H]2C[C@@H]2CN)c1 (relative stereo) , give its reported Ratio EC50.
4.8

Please report Ratio EC50 for the following compound: Cc1ccc(Cl)c([C@H]2C[C@@H]2CN)c1F (relative stereo)
9.2

Determine from records and report Ratio EC50 for NC[C@H]1C[C@@H]1c1cccc(F)c1F (relative stereo)
3.7

Provide Ratio EC50 value for the following compound: NC[C@H]1C[C@@H]1c1cccc(Br)c1 (relative stereo)
10

Provide measured Ratio EC50 value, entry: NC[C@H]1C[C@@H]1c1ccc(F)cc1 (relative stereo)
1.9

Please report the measured Ratio EC50 for Cc1cccc([C@H]2C[C@@H]2CN)c1C (relative stereo)
1.2

Give the reported Ratio EC50 for this compound. NC[C@H]1C[C@@H]1c1ccccc1F (relative stereo)
2.1

Check the records and state Ratio EC50 for COc1ccccc1[C@H]1C[C@@H]1CN (relative stereo)
7.7

Please look at this compound and report its Ratio EC50: NC[C@H]1C[C@@H]1c1ccccc1C(F)(F)F (relative stereo)
7.2

Identify Ratio EC50 associated with the compound NC[C@H]1C[C@@H]1c1ccc2ccccc2c1 (relative stereo)
0.18
